# Target Desc: T1, rhesus monkey transferrin receptor (rhTfR) fused to EGFP, on CHO cells (rhesus monkey)
# T1 construct: whole, on cells; also called rhesus monkey TfR
# Measurement Description: apparent Kd, flow cytometry, CHO cells
pKd: −log10 of the molar value.

{"Binder": "C5^V25 (VHH) VHH: EVQLVESGGGVVQPGGSLKLSCVASGTDFSINFIRWYRQAPGKQREFVAGFTATGNTNYADSMKGRFTISRDNTKNAVYLQIDSLKPEDTAVYYCYLLDKWGQGTQVTVSS", "pKd": 6.37}
{"Binder": "B8^V28 (VHH) VHH: EVQLVESGGGVVQPGGSLRLSCAASGEIFSINFMRWYRQAPGKQREWVAGFTRDGSTFYPDSAKGRFTISRDNAKNTVYLQIDSLKPEDTAVYYCYMLDTWGQGTQVTVSS", "pKd": 6.12}
{"Binder": "VHH A18 (C5^V18) (VHH) VHH: EVQLVESGGGVVQPGGSLKLSCVASGTDFSINFIRWYRQAPGKQREFVAGFTATGNTNYADSMKGRFTISRDNTKNAVYLQIDSLKPEDTAVYYCYMVDKWGQGTQVTVSS", "pKd": 6.32}
{"Binder": "C5^V24 (VHH) VHH: EVQLVESGGGVVQPGGSLKLSCVASGTDFSINFIRWYRQAPGKQREFVAGFTATGNTNYADSMKGRFTISRDNTKNAVYLQIDSLKPEDTAVYYCWMLDKWGQGTQVTVSS", "pKd": 6.25}
{"Binder": "VHH B (B8) (VHH) VHH: EVQLVESGGGVVQPGGSLRLSCAASGEIFSINFMRWYRQAPGKQREWVAGFTRDGSTNYPDSAKGRFTISRDNAKNTVYLQIDSLKPEDTAVYYCYMLDTWGQGTQVTVSS", "pKd": 8.66}
{"Binder": "B8^V5 (VHH) VHH: EVQLVESGGGVVQPGGSLRLSCAASGEIFSINFMRWYRQAPGKIREWVAGFTRDGSTNYPDSAKGRFTISRDNAKNTVYLQIDSLKPEDTAVYYCYMLDTWGQGTQVTVSS", "pKd": 8.68}
{"Binder": "VHH A16 (C5^V16) (VHH) VHH: EVQLVESGGGVVQPGGSLKLSCVASGTDFSINFIRWYRQAPGKQREFVAGFTATGNTNYADSMKGRFTISRDNTKNAVYLQIDSLKPEDTAVYYCYILDKWGQGTQVTVSS", "pKd": 6.37}
{"Binder": "B8^V33 (VHH) VHH: EVQLVESGGGVVQPGGSLRLSCAASGEIFSINFMRWYRQAPGKQREWVAGFTRDGSTNYPDSAKGRFTISRDNAKNTVYLQIDSLKPEDTAVYYCYMLKTWGQGTQVTVSS", "pKd": 6.77}

These entries and their values trace back to patent US20230414780A1.
